Test System: MCTs
Experimental Protocol: Autoradiographic saturation binding (homologous displacement) in mouse kidney cryosections
Assay Setup: mouse kidney cortex (Co) cryosections

- Molecule: "CCCN(CCC[18F])c1ccc(/C=C(\\C#N)C(=O)O)c(OC)c1 [[^18F]FACH]"
  Kd / µM: 0.118

###

Test System: MCTs
Experimental Protocol: Autoradiographic saturation binding (homologous displacement) in mouse kidney cryosections
Assay Setup: mouse kidney inner medulla (IM) cryosections
Method: Cryosections from the mouse kidney (10 µm) were cut on a microtome (Microm HM560, Thermo Scientific Microm, Fisher Scientific GmbH, Schwerte, Germany), mounted on glass slides (SuperFrost, Thermo Scientific Menzel, Fisher Scientific GmbH), dried for two hours at room temperature, and stored at −25 °C. […]

- Molecule: "CCCN(CCC[18F])c1ccc(/C=C(\\C#N)C(=O)O)c(OC)c1 [[^18F]FACH]"
  Kd: "265 nM"

###

Test System: MCTs
Experimental Protocol: Autoradiographic saturation binding (homologous displacement) in mouse kidney cryosections
Assay Setup: mouse kidney outer medulla (OM) cryosections

- Molecule: "CCCN(CCC[18F])c1ccc(/C=C(\\C#N)C(=O)O)c(OC)c1 [[^18F]FACH]"
  Kd [nM]: 212
